Data origin, for the record: ChEMBL document CHEMBL2029283

- Test system: HL-60
- measurement-protocol: Cytotoxicity against human HL60 cells after 48 hrs by MTT assay
- Type: functional, cell-based
- test-conditions: HL-60, 48 h

input-smiles | study-system | output-unit | IC50
CCN(CC)CCC(=O)Nc1cc(-n2cccn2)c2[nH]c3c(-n4cccn4)cc(NC(=O)CCN(CC)CC)cc3c2c1 | HL-60 | nM | 1900
O=C(CCN1CCOCC1)Nc1cc(-n2cccn2)c2[nH]c3c(-n4cccn4)cc(NC(=O)CCN4CCOCC4)cc3c2c1 | HL-60 | nM | 1700
O=C(CCN1CCCCC1)Nc1cc(-n2cccn2)c2[nH]c3c(-n4cccn4)cc(NC(=O)CCN4CCCCC4)cc3c2c1 | HL-60 | nM | 1200
O=C(CN1CCOCC1)Nc1cc(-n2cccn2)c2[nH]c3c(-n4cccn4)cc(NC(=O)CN4CCOCC4)cc3c2c1 | HL-60 | nM | 3900
O=C(CN1CCCC1)Nc1cc(-n2cccn2)c2[nH]c3c(-n4cccn4)cc(NC(=O)CN4CCCC4)cc3c2c1 | HL-60 | nM | 1900
O=C(CCN1CCCC1)Nc1cc(-n2cccn2)c2[nH]c3c(-n4cccn4)cc(NC(=O)CCN4CCCC4)cc3c2c1 | HL-60 | nM | 2200
CCN(CC)CC(=O)Nc1cc(-n2cccn2)c2[nH]c3c(-n4cccn4)cc(NC(=O)CN(CC)CC)cc3c2c1 | HL-60 | nM | 2000
O=C(CN1CCCCC1)Nc1cc(-n2cccn2)c2[nH]c3c(-n4cccn4)cc(NC(=O)CN4CCCCC4)cc3c2c1 | HL-60 | nM | 2400

* * *

- study-system: Nucleic Acid
- measurement-protocol: Binding affinity to biotinylated-c-myc G-quadruplex DNA FPu18T by SPR assay
- Assay type: nucleic-acid assay
observable: Kd (nM)

input-smiles | val
CCN(CC)CC(=O)Nc1cc(-n2cccn2)c2[nH]c3c(-n4cccn4)cc(NC(=O)CN(CC)CC)cc3c2c1 | 2030
O=C(CCN1CCCC1)Nc1cc(-n2cccn2)c2[nH]c3c(-n4cccn4)cc(NC(=O)CCN4CCCC4)cc3c2c1 | 131
O=C(CN1CCCC1)Nc1cc(-n2cccn2)c2[nH]c3c(-n4cccn4)cc(NC(=O)CN4CCCC4)cc3c2c1 | 694
O=C(CN1CCCCC1)Nc1cc(-n2cccn2)c2[nH]c3c(-n4cccn4)cc(NC(=O)CN4CCCCC4)cc3c2c1 | 1460
CCN(CC)CCC(=O)Nc1cc(-n2cccn2)c2[nH]c3c(-n4cccn4)cc(NC(=O)CCN(CC)CC)cc3c2c1 | 233
O=C(CCN1CCCCC1)Nc1cc(-n2cccn2)c2[nH]c3c(-n4cccn4)cc(NC(=O)CCN4CCCCC4)cc3c2c1 | 135

* * *

- study-system: Nucleic Acid
- measurement-protocol: Binding affinity to G-quadruplex DNA Pu27 assessed as inhibition of hybridization with complementary strand after 3 mins by PCR-stop assay
observable: IC50 (µM)

input-smiles | inequality-symbol | val
O=C(CN1CCOCC1)Nc1cc(-n2cccn2)c2[nH]c3c(-n4cccn4)cc(NC(=O)CN4CCOCC4)cc3c2c1 | > | 20
O=C(CCN1CCCC1)Nc1cc(-n2cccn2)c2[nH]c3c(-n4cccn4)cc(NC(=O)CCN4CCCC4)cc3c2c1 | = | 3.6
O=C(CN1CCCC1)Nc1cc(-n2cccn2)c2[nH]c3c(-n4cccn4)cc(NC(=O)CN4CCCC4)cc3c2c1 | = | 5.2
CCN(CC)CCC(=O)Nc1cc(-n2cccn2)c2[nH]c3c(-n4cccn4)cc(NC(=O)CCN(CC)CC)cc3c2c1 | = | 6.3
O=C(CCN1CCOCC1)Nc1cc(-n2cccn2)c2[nH]c3c(-n4cccn4)cc(NC(=O)CCN4CCOCC4)cc3c2c1 | > | 20
CCN(CC)CC(=O)Nc1cc(-n2cccn2)c2[nH]c3c(-n4cccn4)cc(NC(=O)CN(CC)CC)cc3c2c1 | > | 20
O=C(CCN1CCCCC1)Nc1cc(-n2cccn2)c2[nH]c3c(-n4cccn4)cc(NC(=O)CCN4CCCCC4)cc3c2c1 | = | 4.9
O=C(CN1CCCCC1)Nc1cc(-n2cccn2)c2[nH]c3c(-n4cccn4)cc(NC(=O)CN4CCCCC4)cc3c2c1 | > | 20

* * *

- Test system: HepG2
- measurement-protocol: Cytotoxicity against human HepG2 cells after 48 hrs by MTT assay
- Type: functional, cell-based
- test-conditions: HepG2, 48 h
Readings of IC50 for the listed compounds
observable: IC50 (µM)

input-smiles | val
CCN(CC)CCC(=O)Nc1cc(-n2cccn2)c2[nH]c3c(-n4cccn4)cc(NC(=O)CCN(CC)CC)cc3c2c1 | 2.7
O=C(CN1CCOCC1)Nc1cc(-n2cccn2)c2[nH]c3c(-n4cccn4)cc(NC(=O)CN4CCOCC4)cc3c2c1 | 6.1
O=C(CN1CCCCC1)Nc1cc(-n2cccn2)c2[nH]c3c(-n4cccn4)cc(NC(=O)CN4CCCCC4)cc3c2c1 | 5.6
O=C(CCN1CCCC1)Nc1cc(-n2cccn2)c2[nH]c3c(-n4cccn4)cc(NC(=O)CCN4CCCC4)cc3c2c1 | 4.2
CCN(CC)CC(=O)Nc1cc(-n2cccn2)c2[nH]c3c(-n4cccn4)cc(NC(=O)CN(CC)CC)cc3c2c1 | 3
O=C(CN1CCCC1)Nc1cc(-n2cccn2)c2[nH]c3c(-n4cccn4)cc(NC(=O)CN4CCCC4)cc3c2c1 | 2.7
O=C(CCN1CCCCC1)Nc1cc(-n2cccn2)c2[nH]c3c(-n4cccn4)cc(NC(=O)CCN4CCCCC4)cc3c2c1 | 5.1
O=C(CCN1CCOCC1)Nc1cc(-n2cccn2)c2[nH]c3c(-n4cccn4)cc(NC(=O)CCN4CCOCC4)cc3c2c1 | 6.9

* * *

- study-system: Nucleic Acid
- measurement-protocol: Binding affinity to biotinylated-telomeric G-quadruplex DNA HTG21 by SPR assay
- Format: nucleic-acid assay

input-smiles | Kd / nM
O=C(CN1CCCCC1)Nc1cc(-n2cccn2)c2[nH]c3c(-n4cccn4)cc(NC(=O)CN4CCCCC4)cc3c2c1 | 8070
O=C(CCN1CCCCC1)Nc1cc(-n2cccn2)c2[nH]c3c(-n4cccn4)cc(NC(=O)CCN4CCCCC4)cc3c2c1 | 1880
CCN(CC)CCC(=O)Nc1cc(-n2cccn2)c2[nH]c3c(-n4cccn4)cc(NC(=O)CCN(CC)CC)cc3c2c1 | 2590
CCN(CC)CC(=O)Nc1cc(-n2cccn2)c2[nH]c3c(-n4cccn4)cc(NC(=O)CN(CC)CC)cc3c2c1 | 6860
O=C(CCN1CCCC1)Nc1cc(-n2cccn2)c2[nH]c3c(-n4cccn4)cc(NC(=O)CCN4CCCC4)cc3c2c1 | 2640
O=C(CN1CCCC1)Nc1cc(-n2cccn2)c2[nH]c3c(-n4cccn4)cc(NC(=O)CN4CCCC4)cc3c2c1 | 2970

* * *

- Test system: Nucleic Acid
- measurement-protocol: Binding affinity to c-myc G-quadruplex DNA FPu18T assessed as change in melting temperature at 1 uM by FRET-melting assay
- Assay type: nucleic-acid assay

input-smiles | ΔTm [°C]
O=C(CCN1CCCC1)Nc1cc(-n2cccn2)c2[nH]c3c(-n4cccn4)cc(NC(=O)CCN4CCCC4)cc3c2c1 | 15.1
CCN(CC)CC(=O)Nc1cc(-n2cccn2)c2[nH]c3c(-n4cccn4)cc(NC(=O)CN(CC)CC)cc3c2c1 | 7.4
O=C(CN1CCCCC1)Nc1cc(-n2cccn2)c2[nH]c3c(-n4cccn4)cc(NC(=O)CN4CCCCC4)cc3c2c1 | 5.5
O=C(CN1CCCC1)Nc1cc(-n2cccn2)c2[nH]c3c(-n4cccn4)cc(NC(=O)CN4CCCC4)cc3c2c1 | 9.3
O=C(CN1CCOCC1)Nc1cc(-n2cccn2)c2[nH]c3c(-n4cccn4)cc(NC(=O)CN4CCOCC4)cc3c2c1 | 4.4
O=C(CCN1CCOCC1)Nc1cc(-n2cccn2)c2[nH]c3c(-n4cccn4)cc(NC(=O)CCN4CCOCC4)cc3c2c1 | 7.3
O=C(CCN1CCCCC1)Nc1cc(-n2cccn2)c2[nH]c3c(-n4cccn4)cc(NC(=O)CCN4CCCCC4)cc3c2c1 | 12.1
CCN(CC)CCC(=O)Nc1cc(-n2cccn2)c2[nH]c3c(-n4cccn4)cc(NC(=O)CCN(CC)CC)cc3c2c1 | 18.1

* * *

- Test system: Nucleic Acid
- measurement-protocol: Binding affinity to human telomeric G-quadruplex DNA F21T assessed as change in melting temperature at 1 uM by FRET-melting assay
- Format: nucleic-acid assay
Quick rule for you: ΔTm at 10 °C or higher means y, lower means n.

input-smiles | label-value
CCN(CC)CC(=O)Nc1cc(-n2cccn2)c2[nH]c3c(-n4cccn4)cc(NC(=O)CN(CC)CC)cc3c2c1 | n
O=C(CN1CCCC1)Nc1cc(-n2cccn2)c2[nH]c3c(-n4cccn4)cc(NC(=O)CN4CCCC4)cc3c2c1 | n
O=C(CN1CCOCC1)Nc1cc(-n2cccn2)c2[nH]c3c(-n4cccn4)cc(NC(=O)CN4CCOCC4)cc3c2c1 | n
O=C(CN1CCCCC1)Nc1cc(-n2cccn2)c2[nH]c3c(-n4cccn4)cc(NC(=O)CN4CCCCC4)cc3c2c1 | n
O=C(CCN1CCCC1)Nc1cc(-n2cccn2)c2[nH]c3c(-n4cccn4)cc(NC(=O)CCN4CCCC4)cc3c2c1 | y
O=C(CCN1CCOCC1)Nc1cc(-n2cccn2)c2[nH]c3c(-n4cccn4)cc(NC(=O)CCN4CCOCC4)cc3c2c1 | n
CCN(CC)CCC(=O)Nc1cc(-n2cccn2)c2[nH]c3c(-n4cccn4)cc(NC(=O)CCN(CC)CC)cc3c2c1 | y
O=C(CCN1CCCCC1)Nc1cc(-n2cccn2)c2[nH]c3c(-n4cccn4)cc(NC(=O)CCN4CCCCC4)cc3c2c1 | n
